# Postemergence herbicidal rating, ABUTH annotations
# Test system: ABUTH (Abutilon theophrasti)
# assayProcedure: Postemergence herbicidal evaluation
# Type: in vivo, Medic.
# settings: rate 0.0320 kg/ha
quantityName: Postemergence herbicidal rating, ABUTH

>>> df
                                    molecule                            quantityname  result
 0  C[C@H]1OC(c2nsc3ccc(-n4c(=O)cc(C(F)(F)F)n(C)c4=O)cc23)O[C@@H]1C  Postemergence herbicidal rating, ABUTH     9.0
 1  Cc1ccc(-c2nsc3ccc(N4C(=O)C5=C(CCCC5)C4=O)cc23)s1  Postemergence herbicidal rating, ABUTH     7.0
 2  Cn1c(C(F)(F)F)cc(=O)n(-c2ccc3snc(-c4cccs4)c3c2)c1=O  Postemergence herbicidal rating, ABUTH     9.0
 3  CC(=O)N1CCSC1c1nsc2ccc(-n3c(=O)cc(C(F)(F)F)n(C)c3=O)cc12 (centres unmarked)  Postemergence herbicidal rating, ABUTH     9.0
 4  Cc1csc(-c2nsc3ccc(-n4c(=O)cc(C(F)(F)F)n(C)c4=O)cc23)n1  Postemergence herbicidal rating, ABUTH     9.0
 5  Cc1cccnc1-c1nsc2cc(F)c(N3C(=O)C4=C(CCCC4)C3=O)cc12  Postemergence herbicidal rating, ABUTH     9.0
 6  Cc1cccnc1-c1nsc2ccc(-n3c(=O)cc(C(F)(F)F)n(C)c3=O)cc12  Postemergence herbicidal rating, ABUTH     9.0
 7  Cn1c(C(F)(F)F)cc(=O)n(-c2ccc3snc(C4SCCN4C(=O)c4ccccc4)c3c2)c1=O (centres unmarked)  Postemergence herbicidal rating, ABUTH     9.0
 8  COc1ccsc1-c1nsc2ccc(-n3c(=O)cc(C(F)(F)F)n(C)c3=O)cc12  Postemergence herbicidal rating, ABUTH     8.0
 9  CCc1cc(-c2nsc3ccc(-n4c(=O)cc(C(F)(F)F)n(C)c4=O)cc23)c(CC)s1  Postemergence herbicidal rating, ABUTH     9.0
10  Cc1ccc(-c2nsc3ccc(-n4c(=O)cc(C(F)(F)F)n(C)c4=O)cc23)s1  Postemergence herbicidal rating, ABUTH     9.0
11  C[C@@H]1OC(c2nsc3ccc(-n4c(=O)cc(C(F)(F)F)n(C)c4=O)cc23)O[C@@H]1C (some centres unmarked)  Postemergence herbicidal rating, ABUTH     9.0
12  Cn1c(C(F)(F)F)cc(=O)n(-c2ccc3snc(C4OCC(C)(C)CO4)c3c2)c1=O  Postemergence herbicidal rating, ABUTH     9.0
13  Cn1c(C(F)(F)F)cc(=O)n(-c2ccc3snc(C(SCCO)SCCO)c3c2)c1=O  Postemergence herbicidal rating, ABUTH     9.0
